// reported IC50 per item
tested on: Mino; assay: MTT cell viability assay; format: cell-based; details: Homo sapiens, MantleCellLymphoma, RPMI 10% FBS
Readout name: IC50 (nM)

1. COc1ccc(-c2ccc3ncc4c(c3c2)n(-c2ccc(N3CCNCC3)c(C(F)(F)F)c2)c(=O)n4C)cn1 | 10.5
2. Nc1cc(C(F)(F)F)c(-c2cc(N3CCOCC3)nc(N3CCOCC3)n2)cn1 | 460
3. Cn1c(=O)n(-c2ccc(C(C)(C)C#N)cc2)c2c3cc(-c4cnc5ccccc5c4)ccc3ncc21 | 60.8

----------
// reported IC50 per item
Tested on: Rec1
Assay: MTT cell viability assay
Format: cell-based
Conditions: Homo sapiens; Rec1, MantleCellLymphoma, RPMI 10% FBS
Procedure: A total of 60 cell lines representative of different cancer types were obtained from the ATCC and grown and maintained in accordance with the provided guidelines. […] The 3-(4,5-dimethylthiazol-2-yl)-2,5-diphenyltetrazolium bromide (MTT) cell viability assay was used to determine cell viability in response to drug treatment. […] Absorbance was measured at 570 nm using a plate reader from Tecan Group. The IC50 concentration was determined using the publicly available ED50 plus v1.0 software program.
Readout name: IC50 (nM)

1. Nc1cc(C(F)(F)F)c(-c2cc(N3CCOCC3)nc(N3CCOCC3)n2)cn1 | 776
2. Cn1c(=O)n(-c2ccc(C(C)(C)C#N)cc2)c2c3cc(-c4cnc5ccccc5c4)ccc3ncc21 | 82.3
3. COc1ccc(-c2ccc3ncc4c(c3c2)n(-c2ccc(N3CCNCC3)c(C(F)(F)F)c2)c(=O)n4C)cn1 | 35.9

----------
system: RPMI8226; assay: MTT cell viability assay; assay type: cell-based; conditions: Homo sapiens, RPMI-8226; RPMI8226, Multiple Myeloma, RPMI 10% FBS
// reported IC50 per item
Readout name: IC50 (µM)

1) Nc1cc(C(F)(F)F)c(-c2cc(N3CCOCC3)nc(N3CCOCC3)n2)cn1 [BKM120] | 0.674
2) Cn1c(=O)n(-c2ccc(C(C)(C)C#N)cc2)c2c3cc(-c4cnc5ccccc5c4)ccc3ncc21 [BEZ235] | 0.0569

----------
system: RL; assay: MTT cell viability assay; assay type: cell-based; details: Homo sapiens, GCB DLBCL, RPMI 10% FBS
Readout name: IC50 (nM)

1. Nc1cc(C(F)(F)F)c(-c2cc(N3CCOCC3)nc(N3CCOCC3)n2)cn1 | 2600
2. Cn1c(=O)n(-c2ccc(C(C)(C)C#N)cc2)c2c3cc(-c4cnc5ccccc5c4)ccc3ncc21 | 26
3. COc1ccc(-c2ccc3ncc4c(c3c2)n(-c2ccc(N3CCNCC3)c(C(F)(F)F)c2)c(=O)n4C)cn1 | 64.1

----------
// reported IC50 per item
test system: LY1; experiment: MTT cell viability assay; format: cell-based; settings: LY1, GCB DLBCL, OCI
Readout name: IC50 (nM)

1. Nc1cc(C(F)(F)F)c(-c2cc(N3CCOCC3)nc(N3CCOCC3)n2)cn1 [BKM120] | 382
2. Cn1c(=O)n(-c2ccc(C(C)(C)C#N)cc2)c2c3cc(-c4cnc5ccccc5c4)ccc3ncc21 [BEZ235] | 16.4

----------
tested on: L1236; assay: MTT cell viability assay; assay type: cell-based; settings: L-1236; L1236, Hodgkin Lymphoma, RPMI 10% FBS
pIC50: −log10 of the molar value.
// reported pIC50 per item
Readout name: pIC50

1) Cn1c(=O)n(-c2ccc(C(C)(C)C#N)cc2)c2c3cc(-c4cnc5ccccc5c4)ccc3ncc21 [BEZ235] | 7.22
2) Nc1cc(C(F)(F)F)c(-c2cc(N3CCOCC3)nc(N3CCOCC3)n2)cn1 [BKM120] | 5.95
3) COc1ccc(-c2ccc3ncc4c(c3c2)n(-c2ccc(N3CCNCC3)c(C(F)(F)F)c2)c(=O)n4C)cn1 [BGT226] | 7.91
